Measured Trimeric HA Binding: RLU by item
Assayed target: recombinant soluble homotrimeric HA of A/Hong Kong/2108/03 (H9N2) (Influenza A virus A/HK/2108/2003(H9N2))
Test summary: HA microarray, BCC supernatant
Setup conditions: remark: other sources report otherwise
Give the number; RLU is assumed, so skip it.

* TCN-543 (5081_G23) (antibody, V domains shown) VH: QVHLVQSGAEVRKPGDSVKVSCKTSGYTFSTYPVAWVRQVPGQGLEWMGWISTYNGNTNFAQNFQGRVTLTTDTTTNTAYMEVRSLKFDDTAVYYCARVEGSYRDFWNNQNRFDPWGQGTLVTVSS VL: SYVLTQPPSVSVAPGQTARISCGGSNIGGKSVHWYQQKPGQAPVLVVYDDSGRPSGIPERFSGSNSGDTATLTISRVEAGDEADYFCQVWDNFGGVFGTGTKVTVL | 131
* TCN-521 (3280_D18) (antibody, V domains shown) VH: EVQLVQSGGGLVQPGGSLRLACVVSGFTVTSNYITWVRQAPGKGLEWVSVIYSHGRAYYSASVNGRFTISRHTSKNTVYLEMNSLRPEDTAVYYCAGGGLVGGYDEYFFDYWGQGTLATVSS VL: ETVLTQSPGTLSLTPGERATLSCRVGQSVSGSHLAWYQQKPGQAPRLLIYGASSRATGIPDRFGGSVSGTDFTLTISRLEPEDSAVYYCQQYGDSRYTFGQGTKLEIK | 93

[ask] Need Trimeric HA Binding: RLU of TCN-536 (5095_N01) (antibody, V domains shown) VH: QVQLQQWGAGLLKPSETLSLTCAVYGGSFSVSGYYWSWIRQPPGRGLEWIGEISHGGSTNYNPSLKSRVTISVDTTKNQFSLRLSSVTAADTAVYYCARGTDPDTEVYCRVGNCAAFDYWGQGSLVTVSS VL: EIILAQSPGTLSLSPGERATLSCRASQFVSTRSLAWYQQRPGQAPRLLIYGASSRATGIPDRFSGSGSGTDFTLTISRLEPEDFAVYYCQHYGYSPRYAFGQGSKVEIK , thanks.
[reply] 1570
